I'd appreciate it if you could supply intrinsic clearance, human liver microsomes values for the items below.
Answers are plain numbers, in mL/min/kg.

CN1CCCN(c2nc(C(F)(F)F)nc3cc4c(cc23)OCO4)CC1: 22.3
Cc1ccc(=O)n(CCOc2ccc(Cl)c(F)c2)n1: 71.2
CCc1nc2c(C)cc(N3CCN(CC(=O)N4CC(O)C4)CC3)cn2c1N(C)c1nc(-c2ccc(F)cc2)c(C#N)s1: 108
O=C1Nc2ccccc2O[C@H]2C[C@@H]1N(CC1CC1)C2: 14.5
Cc1cc(N2CCC(C(=O)NC3CCCCC3)CC2)nc(-c2ccncc2)n1: 67

The record that follows has no intrinsic clearance, human liver microsomes shown yet.
Please look up its intrinsic clearance, human liver microsomes: `CSc1nnc(CCCNc2cc(C)ccn2)n1C1CCCC1` 138

----------
measurement_type: intrinsic clearance, human liver microsomes

For orientation, consider the following solved cases.
CCc1cnccc1C(=O)Nc1cnccn1: ≤ 4.74 mL/min/kg
CCNC(=O)C1CN(c2cccc(C#N)n2)C1: ≤ 4.74 mL/min/kg
O=C(O)c1c2ccccc2nn1Cc1ccccc1: ≤ 4.74 mL/min/kg
COc1ccc(CCCN2CCN(c3cnn(C)c3)C(=O)C2)cc1F: ≤ 4.74 mL/min/kg
O=C(Nc1c(F)cccc1Oc1ccccc1)c1cnccn1: 34.6 mL/min/kg

Parameter requested: intrinsic clearance, human liver microsomes. Apply to each item below.
1. Cc1cc(F)ccc1C1C(=O)NCCN1C(=O)c1ccc2nccn2c1 (stereo not given)
2. COc1cc(-c2cnc(NC3CC3)nc2-c2cccs2)nc(OC)n1
3. CC(C)c1ccc2c(c1)[C@H](NC(=O)Cn1ccnn1)CCC2

1: 6 mL/min/kg; 2: 34.7 mL/min/kg; 3: 88.8 mL/min/kg

Parameter requested: intrinsic clearance, human liver microsomes. Apply to each item below.
1. Cc1ccc(NC(=O)CN2[C@H](Cc3ccccc3)C[C@]3(C)NC(=O)CCC[C@H]23)cc1F
2. Cc1cnc(-c2nc(NCc3ccccn3)ncc2-c2onc(C)c2C)cn1
3. Cc1noc(C)c1COc1ccc2ncccc2c1
4. CC(=O)NC1CCC(NCCc2c(C)cccc2C)CC1 (stereo not given)
5. Oc1c(C(c2ccc(F)cc2)N2CCCCC2)ccc2cccnc12 (stereo not given)

499 mL/min/kg
116 mL/min/kg
86.8 mL/min/kg
≤ 4.74 mL/min/kg
35.1 mL/min/kg

----------
Each record's MDR1-MDCK efflux ratio is compared with class 1 = under 0.7, class 2 = from 0.7 up to 3, class 3 = 3 and over to give its class.

Reference set (3 entries):
O=C(CN1CCCC(c2nc3ccccc3o2)C1)Nc1ccc(OC(F)(F)F)cc1 (stereo unspecified): class 2
CCOc1ccc(Nc2nc(-c3c(C)nc4ccccn34)cs2)cc1: class 1
CC(C)(C)CCCNC(=O)N1CCN(Cc2ccon2)CC1: class 2

Now consider a different molecule.
State the class of the molecule shown: `O=c1c2sccc2nc2n1CCN(Cc1cc(F)ccc1F)CC2` class 1

----------
I'd appreciate it if you could supply fraction unbound, human plasma values for the items below.
One number for each entry.

For orientation, consider the following solved cases.
O=C(NC1CCNCC1)c1ccc2cn[nH]c2c1: 1
C[C@@H]1CN(C(=O)CC(c2ccccc2)c2ccccc2)C[C@H](C)O1: 0.154
Cc1oc2ccccc2c1CNc1nnc(-c2ccncc2)o1: 0.0522
CC#CC(=O)N1CC[C@@H](n2c(=O)n(-c3ccc(Oc4ccccc4)cc3)c3c(N)ncnc32)C1: 0.0863
NC1CCCC1C(=O)N1CCC(c2c[nH]c3ncccc23)CC1 (stereo not drawn): 0.521
COc1cc2ncnc(Nc3cccc(O)c3)c2cc1OC: 0.0987

Parameter requested: fraction unbound, human plasma. Apply to each item below.
1. COc1cc2c(cc1OC)CN(CCc1ccc(NC(=O)c3cccc4c(O)c5cccc(OC)c5nc34)cc1)CC2
2. Cn1cc(Nc2nc(N)nc(-c3cccc(-n4ccc5cc(C6CC6)cc(F)c5c4=O)c3CO)n2)cn1

0.00062
0.0709
